# assay-text: Components of the Cytosolic LPS Sensing Pathway: Gene Identification via Genome-wide siRNA Screen
# test-parameters: RAW264.7 macrophages, IL-1a HTRF, actives lie on both sides, screened at 100 nM (by protocol), cells primed 5 h with Pam3CSK4 first
Out of some 53,000 sequences screened, about 3,700 (7%) were called active. Only a selection was taken, and actives are over-represented in it overall.
Rule: true for z-score not less than 0.1, false for anything less.

I'd appreciate it if you could say whether GGAUCAAAUCAAGAAGAUGTT against Chmp5 has z-score at least equal to 0.1.
true

I'd appreciate it if you could say whether GCUCAGAAAUCGGCUCAGATT against Ssbp2 has z-score at least equal to 0.1.
false

I'd appreciate it if you could say whether GGAGUCAACACACAUCAAGTT against Zfp13 has z-score at least equal to 0.1.
true

I'd appreciate it if you could say whether GGUCUGCUAUGAAAUUAUGTT against Tmem14c has z-score at least equal to 0.1.
false

I'd appreciate it if you could say whether GGAAAUGAAUGGAAAUAGUTT against Ino80c has z-score at least equal to 0.1.
false

I'd appreciate it if you could say whether GCAUCUACUCCCUAUAGACTT against Nin has z-score at least equal to 0.1.
true

I'd appreciate it if you could say whether CGCGAUUCAGCUCAUUCUCTT against Slitrk1 has z-score at least equal to 0.1.
true

I'd appreciate it if you could say whether GGUCUACGACCGAUGUUCUTT against 9530003J23Rik has z-score at least equal to 0.1.
true

I'd appreciate it if you could say whether CCUUCUAAAUACUGAUUUGTT against Ugt2b38 has z-score at least equal to 0.1.
true

I'd appreciate it if you could say whether GGUUUUAUUAACUCUGUGATT against Olfr1013 has z-score at least equal to 0.1.
true

I'd appreciate it if you could say whether GCAAGUCCUAGUGUCCUGATT against N6amt1 has z-score at least equal to 0.1.
false

I'd appreciate it if you could say whether GGUGUAGACUCCAACAUGUTT against Aarsd1 has z-score at least equal to 0.1.
true

I'd appreciate it if you could say whether GGAUCACACUAGUAUUUUCTT against Sertad2 has z-score at least equal to 0.1.
false

I'd appreciate it if you could say whether GGACAAGUCCUUUGCUGUGTT against Zmynd8 has z-score at least equal to 0.1.
false

I'd appreciate it if you could say whether GCAUUAUCUGUGAAAAUCCTT against En2 has z-score at least equal to 0.1.
true

I'd appreciate it if you could say whether GGGUGCACUGGCUAAUAUATT against H2-Ea has z-score at least equal to 0.1.
true

I'd appreciate it if you could say whether GGGCAUAUUUGGAAUCUGATT against Rtn4 has z-score at least equal to 0.1.
true

I'd appreciate it if you could say whether CGUGCAGUGUGCUUCACAATT against Smarcad1 has z-score at least equal to 0.1.
false

I'd appreciate it if you could say whether GGGAAUAUCACAGGUGCCATT against Axl has z-score at least equal to 0.1.
false

I'd appreciate it if you could say whether GGAUGUCUAACCCAAAUAGTT against Ly6e has z-score at least equal to 0.1.
true

I'd appreciate it if you could say whether GGUUUCGAACUGAUGAAGCTT against Nemf has z-score at least equal to 0.1.
true

I'd appreciate it if you could say whether CCAGGAAGUUACAAUUCAATT against Ccpg1 has z-score at least equal to 0.1.
true

I'd appreciate it if you could say whether GCAGUUUGUGGAUAUGUCATT against Treh has z-score at least equal to 0.1.
true

I'd appreciate it if you could say whether GGCCUUUUGGCUUUGAUCUTT against Hoxb1 has z-score at least equal to 0.1.
false
